Taken from BindingDB's records for doi:10.1023/a:1006986824213.

Listing: pKi of selected molecules
TGT: D(1A) dopamine receptor (Rattus norvegicus, UniProt P18901)
Sequence (P18901 whole entry): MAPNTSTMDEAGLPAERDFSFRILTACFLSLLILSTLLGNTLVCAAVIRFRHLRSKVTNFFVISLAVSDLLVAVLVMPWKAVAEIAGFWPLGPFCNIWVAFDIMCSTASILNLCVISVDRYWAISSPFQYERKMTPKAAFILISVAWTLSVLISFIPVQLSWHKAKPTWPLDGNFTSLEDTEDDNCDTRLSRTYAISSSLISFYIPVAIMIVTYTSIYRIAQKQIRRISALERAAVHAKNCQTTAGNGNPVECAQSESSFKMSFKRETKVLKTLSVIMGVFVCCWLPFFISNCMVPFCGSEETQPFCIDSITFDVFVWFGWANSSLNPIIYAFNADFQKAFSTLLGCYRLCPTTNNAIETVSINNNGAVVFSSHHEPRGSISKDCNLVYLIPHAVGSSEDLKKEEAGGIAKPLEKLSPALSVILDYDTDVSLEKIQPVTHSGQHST
pKi: −log10 of the molar value. Structures can show the parent of a compound that is named as a salt.

Please review the following examples before continuing.
| MOLECULE | pKi |
| --- | --- |
| CN(CCCN1c2ccccc2CCc2ccccc21)CC(=O)c1ccc(Cl)cc1 [CAS_23047-25-8] | 6.30 |
| CN(C)CCC=C1c2ccccc2CCc2ccccc21 | 7.09 |
| CCc1nn(CCCN2CCN(c3cccc(Cl)c3)CC2)c(=O)n1CCOc1ccccc1 | 5.82 |
| CN(C)CCCC1(c2ccc(F)cc2)OCc2cc(C#N)ccc21 (centres undefined) [CITALOPRAM HYDROBROMIDE] | < 5.00 |
| Fc1ccc([C@@H]2CCNC[C@H]2COc2ccc3c(c2)OCO3)cc1 [PAROXETINE] | < 5.00 |
| COc1ccc(C(CN(C)C)C2(O)CCCCC2)cc1 (centres undefined) [NSC_62923] | < 5.00 |
| CC(NC(C)(C)C)C(=O)c1cccc(Cl)c1 (centres undefined) [BUPROPION HYDROCHLORIDE] | < 5.00 |
| CNCC[C@@H](Oc1ccc(C(F)(F)F)cc1)c1ccccc1 [Prozac] | < 5.00 |

Now for the molecule whose pKi we want.
Query block: D(1A) dopamine receptor (Rattus norvegicus, UniProt P18901) / pKi / "COCCCC/C(=N\OCCN)c1ccc(C(F)(F)F)cc1" : value?
Result block: < 5.00

====

TGT: Muscarinic acetylcholine receptor M2 (Rattus norvegicus, UniProt P10980)
Sequence (P10980 whole entry): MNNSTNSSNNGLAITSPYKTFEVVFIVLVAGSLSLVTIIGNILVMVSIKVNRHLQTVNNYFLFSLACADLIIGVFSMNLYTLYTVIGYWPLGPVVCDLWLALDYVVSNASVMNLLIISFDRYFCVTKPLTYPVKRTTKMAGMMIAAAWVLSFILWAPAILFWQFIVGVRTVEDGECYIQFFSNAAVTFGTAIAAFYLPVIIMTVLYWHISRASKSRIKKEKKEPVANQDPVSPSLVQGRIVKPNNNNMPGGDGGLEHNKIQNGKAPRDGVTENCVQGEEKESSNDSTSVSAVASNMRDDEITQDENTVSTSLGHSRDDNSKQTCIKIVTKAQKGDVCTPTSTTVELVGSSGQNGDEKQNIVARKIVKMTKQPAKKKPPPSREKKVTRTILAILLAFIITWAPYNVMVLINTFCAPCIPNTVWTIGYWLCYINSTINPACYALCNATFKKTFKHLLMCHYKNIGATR
Structures can show the parent of a compound that is named as a salt.
QUANTITY NAME: Ki

Please review the following examples before continuing.
| MOLECULE | TGT | Ki |
| --- | --- | --- |
| COc1ccc(C(CN(C)C)C2(O)CCCCC2)cc1 (stereo not given) [NSC_62923] | Muscarinic acetylcholine receptor M2 (Rattus norvegicus, UniProt P10980) | > 10 µM |
| COCCCC/C(=N\OCCN)c1ccc(C(F)(F)F)cc1 | Muscarinic acetylcholine receptor M2 (Rattus norvegicus, UniProt P10980) | > 10 µM |
| CC(NC(C)(C)C)C(=O)c1cccc(Cl)c1 (stereo not given) [BUPROPION HYDROCHLORIDE] | Muscarinic acetylcholine receptor M2 (Rattus norvegicus, UniProt P10980) | > 10 µM |
| CCc1nn(CCCN2CCN(c3cccc(Cl)c3)CC2)c(=O)n1CCOc1ccccc1 | Muscarinic acetylcholine receptor M2 (Rattus norvegicus, UniProt P10980) | > 10 µM |

Now for the molecule whose Ki we want.
Query block: Report Ki for Fc1ccc([C@@H]2CCNC[C@H]2COc2ccc3c(c2)OCO3)cc1 [PAROXETINE] please.
Result block: 0.21 µM

====

What follows is a record of Ki for Alpha-2C adrenergic receptor (Rattus norvegicus, UniProt P22086).
// note: answer is a bare numeric in nM

| SMILES REPR | TGT | OUTPUT UNIT | Ki |
| --- | --- | --- | --- |
| COCCCC/C(=N\OCCN)c1ccc(C(F)(F)F)cc1 | Alpha-2C adrenergic receptor (Rattus norvegicus, UniProt P22086) | nM | 1900 |
| CN(C)CCC=C1c2ccccc2CSc2ccccc21 | Alpha-2C adrenergic receptor (Rattus norvegicus, UniProt P22086) | nM | 12 |

Now for the compound whose Ki we want.
Query block: Report Ki for "Fc1ccc([C@@H]2CCNC[C@H]2COc2ccc3c(c2)OCO3)cc1" please.
Result block: 8900

====

What follows is a record of Ki for 5-hydroxytryptamine receptor 2A (Rattus norvegicus, UniProt P14842).

Please review the following examples before continuing.
| MOLECULE | TGT | QUANTITY NAME | RESULT |
| --- | --- | --- | --- |
| CN(CCCN1c2ccccc2CCc2ccccc21)CC(=O)c1ccc(Cl)cc1 [CAS_23047-25-8] | 5-hydroxytryptamine receptor 2A (Rattus norvegicus, UniProt P14842) | Ki | 1200 nM |
| CN(C)CCC=C1c2ccccc2CCc2ccccc21 | 5-hydroxytryptamine receptor 2A (Rattus norvegicus, UniProt P14842) | Ki | 11 nM |

Query block: 5-hydroxytryptamine receptor 2A (Rattus norvegicus, UniProt P14842) / Ki / CN(C)CCC=C1c2ccccc2CSc2ccccc21 [CAS_897-15-4] : value?
Result block: 152 nM

Query block: 5-hydroxytryptamine receptor 2A (Rattus norvegicus, UniProt P14842) / Ki / "COCCCC/C(=N\OCCN)c1ccc(C(F)(F)F)cc1" : value?
Result block: > 10000 nM

====

TGT: Histamine H1 receptor (Rattus norvegicus)
Sequence (P31390 whole entry): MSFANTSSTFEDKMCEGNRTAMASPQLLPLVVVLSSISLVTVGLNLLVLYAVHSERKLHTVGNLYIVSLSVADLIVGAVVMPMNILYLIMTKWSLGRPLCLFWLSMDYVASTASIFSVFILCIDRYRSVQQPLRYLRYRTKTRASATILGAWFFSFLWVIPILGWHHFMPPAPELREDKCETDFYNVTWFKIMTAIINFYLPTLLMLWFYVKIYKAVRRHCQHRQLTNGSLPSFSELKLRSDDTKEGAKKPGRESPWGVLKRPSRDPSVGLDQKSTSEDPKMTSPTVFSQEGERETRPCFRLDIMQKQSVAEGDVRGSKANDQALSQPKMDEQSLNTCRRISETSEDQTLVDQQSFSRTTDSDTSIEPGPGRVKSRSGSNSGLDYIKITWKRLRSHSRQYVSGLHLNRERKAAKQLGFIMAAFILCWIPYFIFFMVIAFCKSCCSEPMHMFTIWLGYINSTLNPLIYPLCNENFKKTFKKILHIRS
QUANTITY NAME: log10(Ki) (log10 of the value in nM)
Each number you see is log10 of Ki, and the unit inside the log is nM.

Please review the following examples before continuing.
| COMPOUND | TGT | log10(Ki) |
| --- | --- | --- |
| CN(CCCN1c2ccccc2CCc2ccccc21)CC(=O)c1ccc(Cl)cc1 [CAS_23047-25-8] | Histamine H1 receptor (Rattus norvegicus) | 3.00 |
| CN(C)CCC=C1c2ccccc2CSc2ccccc21 [CAS_897-15-4] | Histamine H1 receptor (Rattus norvegicus) | 0.60 |
| CNCC[C@@H](Oc1ccc(C(F)(F)F)cc1)c1ccccc1 [Prozac] | Histamine H1 receptor (Rattus norvegicus) | 3.51 |
| CCc1nn(CCCN2CCN(c3cccc(Cl)c3)CC2)c(=O)n1CCOc1ccccc1 | Histamine H1 receptor (Rattus norvegicus) | 2.57 |

Now for the compound whose log10(Ki) we want.
Query block: Report log10(Ki) for "CN(C)CCC=C1c2ccccc2CCc2ccccc21" please.
Result block: 0.92

====

TGT: 5-hydroxytryptamine receptor 2C (Rattus norvegicus, UniProt P08909)
Sequence (P08909 whole entry): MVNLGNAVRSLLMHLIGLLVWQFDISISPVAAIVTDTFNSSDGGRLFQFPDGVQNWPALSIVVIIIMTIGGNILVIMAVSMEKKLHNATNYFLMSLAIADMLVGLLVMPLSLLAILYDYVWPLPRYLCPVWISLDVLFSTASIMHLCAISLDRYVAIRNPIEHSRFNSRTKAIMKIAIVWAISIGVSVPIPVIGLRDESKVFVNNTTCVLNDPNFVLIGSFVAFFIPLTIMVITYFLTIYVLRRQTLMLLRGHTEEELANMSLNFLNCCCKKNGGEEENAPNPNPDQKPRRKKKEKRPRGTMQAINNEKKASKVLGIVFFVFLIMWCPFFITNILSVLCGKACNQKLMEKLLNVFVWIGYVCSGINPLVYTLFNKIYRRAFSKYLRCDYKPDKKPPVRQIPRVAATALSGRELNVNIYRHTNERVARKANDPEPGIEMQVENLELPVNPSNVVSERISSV
pKi: −log10 of the molar value. Counter-ions that a name gives are not always drawn.
QUANTITY NAME: pKi

Please review the following examples before continuing.
| COMPOUND | TGT | QUANTITY NAME | RESULT |
| --- | --- | --- | --- |
| Fc1ccc([C@@H]2CCNC[C@H]2COc2ccc3c(c2)OCO3)cc1 | 5-hydroxytryptamine receptor 2C (Rattus norvegicus, UniProt P08909) | pKi | < 5.00 |
| COc1ccc(C(CN(C)C)C2(O)CCCCC2)cc1 (stereo not drawn) | 5-hydroxytryptamine receptor 2C (Rattus norvegicus, UniProt P08909) | pKi | < 5.00 |

Query block: Report pKi for CC(NC(C)(C)C)C(=O)c1cccc(Cl)c1 (stereo not drawn) [BUPROPION HYDROCHLORIDE] please.
Result block: < 5.00
